- measured on: FAAH (Homo sapiens)
- Sequence (O00519 whole entry): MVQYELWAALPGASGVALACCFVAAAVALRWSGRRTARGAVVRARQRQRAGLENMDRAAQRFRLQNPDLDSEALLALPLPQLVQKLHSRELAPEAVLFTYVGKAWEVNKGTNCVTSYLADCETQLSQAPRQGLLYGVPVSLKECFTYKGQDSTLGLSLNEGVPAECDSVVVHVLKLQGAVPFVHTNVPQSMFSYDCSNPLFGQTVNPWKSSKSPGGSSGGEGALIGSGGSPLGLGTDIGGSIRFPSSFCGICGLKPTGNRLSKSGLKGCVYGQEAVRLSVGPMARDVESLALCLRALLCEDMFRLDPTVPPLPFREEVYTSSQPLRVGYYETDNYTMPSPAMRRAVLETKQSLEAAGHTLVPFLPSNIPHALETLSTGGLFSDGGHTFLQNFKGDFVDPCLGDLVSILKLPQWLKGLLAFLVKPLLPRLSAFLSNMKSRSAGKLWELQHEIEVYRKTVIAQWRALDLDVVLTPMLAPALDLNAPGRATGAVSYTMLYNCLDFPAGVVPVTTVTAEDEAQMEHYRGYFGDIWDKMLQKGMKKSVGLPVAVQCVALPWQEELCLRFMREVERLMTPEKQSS
- test name: Assay Method 1: FAAH assay, 3H-anandamide hydrolysis in homogenate of T84 cells or SK-N-MC cells transfected with human FAAH
Where a name gives a salt, the structure may show the parent alone.
List of IC50 values.
Supply the numeric figure in nM, leaving out any unit text.

[[record]]
compound = "CCNc1nc(NC[C@H](O)c2ccccc2)cc(-c2ccc(C(F)(F)F)c(Cl)c2)n1 [Example 159, trifluoroacetic acid salt]"
measured_on = "FAAH (Homo sapiens)"
obs_value = 20

[[record]]
compound = "CC(C)(C)c1ccc(-c2cc(NCC(O)c3ccccc3)ncn2)cc1 (stereo not shown)"
measured_on = "FAAH (Homo sapiens)"
obs_value = 28

[[record]]
compound = "CNc1nc(NC[C@H](O)c2ccccc2)cc(-c2ccc(C(F)(F)F)c(Cl)c2)n1 [Example 141, trifluoroacetic acid salt]"
measured_on = "FAAH (Homo sapiens)"
obs_value = 12

[[record]]
compound = "O=Cc1cccc(-c2cc(NC[C@H](O)c3ccccc3)ncn2)c1"
measured_on = "FAAH (Homo sapiens)"
obs_value = 5000

[[record]]
compound = "OC(CNc1cc(-c2ccc(C(F)(F)F)c(Cl)c2)ncn1)c1ccc2c(c1)OCCCO2 (stereo not shown)"
measured_on = "FAAH (Homo sapiens)"
obs_value = 548


Let us move to another entry and its IC50.
Using the record for COc1ccc(C(O)CNc2cc(-c3ccc(OC(F)(F)F)cc3)ncn2)cc1 (stereo not shown) , report its IC50.
122

* * *

- measured on: Rat FAAH-1 (Rattus norvegicus, UniProt P97612)
- Sequence (P97612 1-579): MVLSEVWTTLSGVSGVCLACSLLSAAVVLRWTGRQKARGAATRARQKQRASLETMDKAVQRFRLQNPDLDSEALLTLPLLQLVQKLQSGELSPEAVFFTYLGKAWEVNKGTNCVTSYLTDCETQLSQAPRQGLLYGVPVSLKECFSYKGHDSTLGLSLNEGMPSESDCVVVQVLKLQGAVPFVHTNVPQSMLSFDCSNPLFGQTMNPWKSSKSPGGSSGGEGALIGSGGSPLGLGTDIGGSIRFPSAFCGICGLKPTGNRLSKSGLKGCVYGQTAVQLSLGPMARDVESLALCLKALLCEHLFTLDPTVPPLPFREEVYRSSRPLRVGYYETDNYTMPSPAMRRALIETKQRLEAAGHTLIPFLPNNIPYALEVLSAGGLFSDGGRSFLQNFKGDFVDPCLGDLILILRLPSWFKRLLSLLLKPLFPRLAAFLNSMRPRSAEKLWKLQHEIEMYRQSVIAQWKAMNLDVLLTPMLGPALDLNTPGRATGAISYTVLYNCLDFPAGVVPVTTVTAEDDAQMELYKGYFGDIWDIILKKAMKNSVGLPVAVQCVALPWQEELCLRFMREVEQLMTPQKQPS
- test name: Assay Method 2: rat FAAH-1 assay, 3H-anandamide hydrolysis in homogenate of SK-N-MC cells transfected with rat FAAH
Counter-ions that a name gives are not always drawn.
reported property: IC50 (µM)
Answer with a number only, understood to be in µM.

[[record]]
compound = "OC(CNc1cc(-c2ccc(C(F)(F)F)c(Cl)c2)ncn1)c1ccc2c(c1)OCCO2 (stereo not drawn)"
obs_value = 0.12


So what's the measured IC50 for this one? O[C@@H](CNc1cc(-c2cc3cc(OC(F)(F)F)ccc3s2)ncn1)c1ccccc1 [Example 185, trifluoroacetic acid salt]
0.09

Need IC50, item OC(CNc1cc(-c2ccc(C(F)(F)F)c(Cl)c2)ncn1)c1ccccc1OC(F)F (stereo not drawn)
0.15

* * *

- measured on: UniProtKB O00519
- test name: Assay Method 1: FAAH assay, 3H-anandamide hydrolysis in homogenate of T84 cells or SK-N-MC cells transfected with human FAAH
Structures can show the parent of a compound that is named as a salt.
reported property: pIC50
Please keep in mind that pIC50 is minus log10 of the molar concentration; only the number is needed.

Guide cases for pIC50, answers given:
[[record]]
compound = "OC(CNc1cc(-c2ccc(OC(F)(F)F)cc2)ncn1)c1cccc(Cl)c1 (stereo not shown) [Example 116]"
obs_value = 7.05

[[record]]
compound = "CC(C)(C#N)c1ccc(-c2cc(NC[C@H](O)c3ccccc3)ncn2)cc1 [Example 50, trifluoroacetic acid salt]"
obs_value = 7.04

[[record]]
compound = "Cc1c(NC[C@H](O)c2ccccc2)ncnc1-c1ccc(C(F)(F)F)c(F)c1 [Example 48, trifluoroacetic acid salt]"
obs_value = 6.98


Let us move to another entry and its pIC50.
What does the data say about its pIC50? Entry: OC(CNc1cc(-c2ccc(C(F)(F)F)c(Cl)c2)ncn1)c1cc(-c2ccccc2)no1 (stereo not shown) [Example 207]
7.17

* * *

- measured on: Rat FAAH-1 (Rattus norvegicus)
- test name: Assay Method 2: rat FAAH-1 assay, 3H-anandamide hydrolysis in homogenate of SK-N-MC cells transfected with rat FAAH
Where a name gives a salt, the structure may show the parent alone.
reported property: IC50

Completed entries (count: 3):
[[record]]
molecule = "OC(CNc1cc(-c2ccc(C(F)(F)F)c(Cl)c2)ncn1)c1ccc(-n2ccnc2)cc1 (centres unmarked) [Example 200]"
reported_property = "IC50"
obs_value = "1600 nM"

[[record]]
molecule = "O[C@@H](CNc1ncnc(-c2ccc(C(F)(F)F)c(Cl)c2)n1)c1ccccc1 [Example 104, trifluoroacetic acid salt]"
reported_property = "IC50"
obs_value = "58 nM"

[[record]]
molecule = "OC(CNc1cc(-c2ccc(C(F)(F)F)c(Cl)c2)ncn1)c1cc(-c2ccccc2)no1 (centres unmarked) [Example 207]"
reported_property = "IC50"
obs_value = "111 nM"


# input molecule: CCOc1ccc(-c2cc(NC[C@H](O)c3ccccc3)ncn2)cn1 [Example 64] ; wanted: its IC50
220 nM

Can you look up the measured IC50 of COc1cc(C(O)CNc2cc(-c3ccc(OC(F)(F)F)cc3)ncn2)ccc1O (centres unmarked) [Example 112] for me?
760 nM

* * *

// values below are reported pIC50
- measured on: FAAH (Homo sapiens)
- test name: Assay Method 1: FAAH assay, 3H-anandamide hydrolysis in homogenate of T84 cells or SK-N-MC cells transfected with human FAAH
Where a name gives a salt, the structure may show the parent alone.
// field semantics: pIC50 = negative decimal log of concentration (mol/L)

// worked examples, pIC50 included
[[record]]
compound = "OCc1ccc(-c2cc(NC[C@H](O)c3ccccc3)ncn2)cc1"
obs_value = 6.47

[[record]]
compound = "OC(CNc1cc(-c2ccc(C(F)(F)F)c(Cl)c2)ncn1)c1ccc(-c2ccccn2)cc1 (centres unmarked)"
obs_value = 7.40

[[record]]
compound = "CCOc1ccc(-c2cc(NC[C@H](O)c3ccccc3)ncn2)cc1C [Example 31, trifluoroacetic acid salt]"
obs_value = 8.52

[[record]]
compound = "O[C@@H](CNc1cc(-c2ccc3nonc3c2)ncn1)c1ccccc1 [Example 45, trifluoroacetic acid salt]"
obs_value = 6.82


Recorded pIC50 for CC(C)(C)NS(=O)(=O)c1ccc(-c2cc(NC[C@H](O)c3ccccc3)ncn2)cc1 , please?
5.80

Report pIC50 for OC(CNc1cc(-c2ccc(OC(F)(F)F)cc2)ncn1)c1ccc2c(c1)OCO2 (centres unmarked) please.
6.91

Look at this compound and give its reported pIC50. O[C@@H](CNc1ncnc(-c2ccc(C(F)(F)F)c(Cl)c2)n1)c1ccccc1 [Example 104, trifluoroacetic acid salt]
6.89

Need pIC50, item O[C@@H](CNc1cc(-c2cc3cc(C(F)(F)F)ccc3s2)ncn1)c1ccccc1 [Example 184, trifluoroacetic acid salt]
7.51

Please give the measured pIC50 for this compound: OC(CNc1cc(-c2ccc(C(F)(F)F)c(Cl)c2)ncn1)c1ccc2c(c1)OCCO2 (centres unmarked)
6.30

Requested field: pIC50. Item: O[C@@H](CNc1cc(-c2cnn(Cc3ccccc3)c2)ncn1)c1ccccc1
7.00

What does the record list as pIC50 for CCOc1ccc(-c2cc(NC[C@H](O)c3ccccc3)ncn2)c(C)c1 [Example 154, trifluoroacetic acid salt] ?
7.19

* * *

- measured on: Rat FAAH-1 (Rattus norvegicus, UniProt P97612)
- test name: Assay Method 2: rat FAAH-1 assay, 3H-anandamide hydrolysis in homogenate of SK-N-MC cells transfected with rat FAAH
Counter-ions that a name gives are not always drawn.
Some molecules, each annotated with its measured IC50.
The reply should contain only the number, in nM.

As a guide, the following entries are already answered.
[[record]]
molecule = "CN(C)CCNc1nc(NC[C@H](O)c2ccccc2)cc(-c2ccc(C(F)(F)F)c(Cl)c2)n1 [Example 158, trifluoroacetic acid salt]"
reported_property = "IC50"
obs_value = 110

[[record]]
molecule = "OC(CNc1cc(-c2ccc(C(F)(F)F)c(Cl)c2)ncn1)c1ccc(F)c(Cl)c1 (centres unmarked) [Example 134, trifluoroacetic acid salt]"
reported_property = "IC50"
obs_value = 19

[[record]]
molecule = "CCOc1ccc(-c2cc(NC[C@H](O)c3ccccc3)ncn2)cc1C [Example 31, trifluoroacetic acid salt]"
reported_property = "IC50"
obs_value = 21

[[record]]
molecule = "NS(=O)(=O)c1ccc(-c2cc(NC[C@H](O)c3ccccc3)ncn2)cc1 [Example 81]"
reported_property = "IC50"
obs_value = 492


Next up:
Quick check: IC50 of O[C@@H](CNc1cc(-c2cc(F)cc(C(F)(F)F)c2)ncn1)c1ccccc1 [Example 42, trifluoroacetic acid salt] ?
793
